Target: IRAK4 (Homo sapiens, UniProt Q9NWZ3)
Construct: endogenous in cells; host or cells: OCI-LY10
Sequence (Q9NWZ3 1-460): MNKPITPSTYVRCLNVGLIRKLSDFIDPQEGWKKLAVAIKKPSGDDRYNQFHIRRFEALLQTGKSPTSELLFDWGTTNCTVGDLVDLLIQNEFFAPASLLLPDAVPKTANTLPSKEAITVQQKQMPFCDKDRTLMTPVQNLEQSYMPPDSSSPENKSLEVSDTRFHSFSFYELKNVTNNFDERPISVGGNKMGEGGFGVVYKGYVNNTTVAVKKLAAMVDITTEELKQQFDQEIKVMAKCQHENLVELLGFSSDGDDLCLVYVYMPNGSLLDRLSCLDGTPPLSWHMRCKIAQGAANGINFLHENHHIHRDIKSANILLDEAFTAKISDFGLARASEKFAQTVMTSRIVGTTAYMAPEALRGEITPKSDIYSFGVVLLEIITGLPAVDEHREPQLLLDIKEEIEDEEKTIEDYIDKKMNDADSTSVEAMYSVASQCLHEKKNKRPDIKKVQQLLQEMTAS
Assay: IRAK4 MSD degradation in OCI-LY10
Type: cell-based
Conditions: OCI-LY10 cells, 24 hrs, Meso Scale Discovery
So I've got a bunch of compounds here, and I need their DC50 values.

Consider the reported DC50 for these compounds:
COc1cc(C(=O)Nc2ccc3nn([C@H]4CC[C@H](CN5CCC6(CCN(c7cccc8c7n(C)c(=O)n8C7CCC(=O)NC7=O)CC6)C(F)(F)C5)CC4)cc3c2)nc(C(F)(F)F)c1 (some centres unmarked) | > 200 nM
Cn1c(=O)n(C2CCC(=O)NC2=O)c2cccc([C@H]3CCN(C[C@H]4CC[C@H](n5cc6cc(NC(=O)c7cccc(C(F)(F)F)n7)c(C(C)(C)O)cc6n5)CC4)C[C@@H]3F)c21 (some centres unmarked) | < 10 nM
O=C1CCC(Nc2ccc(N3CC(CN4CCN(C[C@H]5CC[C@H](n6cc(NC(=O)c7cnn8ccc(N9C[C@H]%10C[C@@H]9CO%10)nc78)c(C(F)F)n6)CC5)CC4)C3)cc2Cl)C(=O)N1 (some centres unmarked) | 10 to 100 nM
COc1cc2nc(C3CCN(CC4(F)CCN(c5cccc6c5n(C)c(=O)n6C5CCC(=O)NC5=O)CC4)CC3)sc2cc1NC(=O)c1cncc(C#N)c1 (centres unmarked) | > 200 nM

// moving on: another record for DC50
Per the record, CN(C[C@H]1CC[C@H](c2nc3cc(C(C)(C)O)c(NC(=O)c4cncc(C(F)(F)F)c4)cc3s2)CC1)[C@@H]1CCN(c2cccc3c2n(C)c(=O)n3C2CCC(=O)NC2=O)C[C@H]1F (single isomer, unassigned) has DC50 of 10 to 100 nM

====

molecular target: IRAK4 (Homo sapiens, UniProt Q9NWZ3); construct: endogenous in cells; host or cells: OCI-LY10; assay: IRAK4 MSD degradation in OCI-LY10; format: cell-based; conditions: OCI-LY10 cells, 24 hrs, Meso Scale Discovery
Please provide measured DC50 for the entries that follow.

Sample records with DC50:
Cn1c(=O)n(C2CCC(=O)NC2=O)c2ccc(F)c(N3CCC4(CCN(C[C@H]5CC[C@H](n6cc7cc(NC(=O)c8cncc(C(F)(F)F)n8)ccc7n6)CC5)CC4(F)F)CC3)c21 (stereo partly drawn) [I-399] | 10 to 100 nM
COc1cc2nn([C@H]3CC[C@H](CN4CC[C@@H](c5cccc6c5n(C)c(=O)n6C5CCC(=O)NC5=O)[C@H](F)C4)CC3)cc2cc1C(=O)Nc1cncc(C(F)(F)F)n1 (stereo partly drawn) [I-290] | < 10 nM

Let us move to another entry and its DC50.
Memo: Cn1c(=O)n(C2CCC(=O)NC2=O)c2cccc([C@@H]3CCN(C[C@H]4CC[C@H](c5nc6cc(C(C)(C)O)c(NC(=O)c7cncc(C(F)(F)F)n7)cc6o5)CC4)CC3(F)F)c21 (single isomer, unassigned) [I-327] , reported DC50: < 10 nM

====

Please go through the items and note down their DC50.
Target: IRAK4 (Homo sapiens)
Construct: endogenous in cells; host or cells: OCI-LY10
Sequence (Q9NWZ3 1-460): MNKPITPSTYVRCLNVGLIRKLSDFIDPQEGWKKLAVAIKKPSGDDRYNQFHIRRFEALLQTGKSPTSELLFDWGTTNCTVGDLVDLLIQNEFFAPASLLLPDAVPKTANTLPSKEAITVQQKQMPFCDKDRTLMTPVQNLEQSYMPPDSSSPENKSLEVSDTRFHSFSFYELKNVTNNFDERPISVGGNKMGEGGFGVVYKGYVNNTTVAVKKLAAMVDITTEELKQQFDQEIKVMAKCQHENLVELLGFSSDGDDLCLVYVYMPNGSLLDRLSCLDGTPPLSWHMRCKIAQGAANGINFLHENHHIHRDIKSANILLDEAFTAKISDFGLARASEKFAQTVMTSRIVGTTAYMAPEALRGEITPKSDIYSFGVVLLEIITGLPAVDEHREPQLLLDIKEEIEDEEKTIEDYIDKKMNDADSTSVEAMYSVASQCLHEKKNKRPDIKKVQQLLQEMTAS
Test: IRAK4 MSD degradation in OCI-LY10
Type: cell-based
Settings: OCI-LY10 cells, 24 hrs, Meso Scale Discovery

As a guide, the following entries are already answered.
Cn1c(=O)n(C2CCC(=O)NC2=O)c2cccc([C@@H]3CCN(C[C@H]4CC[C@H](n5cc6cc(NC(=O)c7cncc(C(F)F)n7)ncc6n5)CC4)C[C@H]3F)c21 (stereo partly shown) [I-321] | < 10 nM
Cn1c(=O)n(C2CCC(=O)NC2=O)c2cccc([C@@H]3CCN(C[C@H]4CC[C@H](n5cc6cc(NC(=O)c7cccc(C(F)(F)F)n7)c(C#N)cc6n5)CC4)C[C@H]3F)c21 (single isomer, unassigned) [I-95] | < 10 nM
Cn1c(=O)n(C2CCC(=O)NC2=O)c2cccc(N3CC4(CCN(C[C@H]5CC[C@H](n6cc7cc(NC(=O)c8cncc(C(F)(F)F)n8)c(C(C)(C)O)cc7n6)CC5)CC4(F)F)C3)c21 (stereo partly shown) [I-326] | < 10 nM

For every item below, please supply its DC50.
1. Cn1nc([C@@H]2CCC(=O)NC2=O)c2cccc([C@@H]3CCN(C[C@H]4CC[C@H](n5cc6cc(NC(=O)c7cncc(C#N)c7)c(C(C)(C)O)cc6n5)CC4)CC3(F)F)c21 (single isomer, unassigned) [I-230]
2. COc1cc2nc([C@H]3CC[C@H](CN4CC[C@@H](c5cccc6c5n(C)c(=O)n6C5CCC(=O)NC5=O)[C@H](F)C4)CC3)oc2cc1NC(=O)c1cccc(C(F)(F)F)n1 (single isomer, unassigned) [I-121]
3. COc1cc2nn([C@H]3CC[C@H](CN(C)[C@@H]4CCN(c5cccc6c5n(C)c(=O)n6C5CCC(=O)NC5=O)C[C@@H]4F)CC3)cc2cc1NC(=O)c1cccc(C(F)(F)F)n1 (stereo partly shown) [I-81]
4. CN(C[C@H]1CC[C@H](n2cc(NC(=O)c3cnn4cccnc34)c(C(F)F)n2)CC1)[C@H]1CCN(c2cccc3c2n(C)c(=O)n3C2CCC(=O)NC2=O)C[C@H]1F (single isomer, unassigned) [I-145]
5. COc1cc2nc([C@H]3CC[C@H](CN4CC[C@@H](c5cccc6c5n(C)c(=O)n6C5CCC(=O)NC5=O)[C@H](F)C4)CC3)sc2cc1NC(=O)c1cncc(C#N)c1 (stereo partly shown) [I-277]

Out:
1. < 10 nM
2. 10 to 100 nM
3. < 10 nM
4. < 10 nM
5. > 200 nM

====

Kindly supply the reported DC50 values for the records listed here.
target: IRAK4 (Homo sapiens); construct: endogenous in cells; host or cells: OCI-LY10; assay: IRAK4 MSD degradation in OCI-LY10; assay type: cell-based; conditions: OCI-LY10 cells, 24 hrs, Meso Scale Discovery

Cn1c(=O)n(C2CCC(=O)NC2=O)c2cccc([C@@H]3CCN(C[C@H]4CC[C@H](c5cn6cc(NC(=O)c7cccc(C(F)(F)F)n7)c(C(C)(C)O)cc6n5)CC4)C[C@H]3F)c21 (some centres unmarked) | < 10 nM

For each listed entry, give its DC50.
1. CN(C[C@H]1CC[C@H](n2cc(NC(=O)c3cnn4ccc(N5C[C@H]6C[C@@H]5CO6)nc34)c(C(F)F)n2)CC1)[C@H]1CCN(c2cccc3c2n(C)c(=O)n3[C@H]2CCC(=O)NC2=O)C[C@@H]1F (single isomer, unassigned)
2. Cn1c(=O)n([C@H]2CCC(=O)NC2=O)c2cccc([C@@H]3CCN(C[C@H]4CC[C@H](n5cc6cc(NC(=O)c7cncc(C(F)(F)F)n7)ccc6n5)CC4)C[C@H]3F)c21 (single isomer, unassigned)
3. COc1cc(NC(=O)c2cncc(C(F)(F)F)n2)cc2cn([C@H]3CC[C@H](CN4CC[C@@H](c5cccc6c5n(C)c(=O)n6C5CCC(=O)NC5=O)[C@H](F)C4)CC3)nc12 (some centres unmarked)
4. Cn1c(=O)n(C2CCC(=O)NC2=O)c2cccc(N3CCC4(CCN(C[C@H]5CC[C@H](c6nc7cc(C(C)(C)O)c(NC(=O)c8cncc(C#N)c8)cc7o6)CC5)CC4(F)F)CC3)c21 (some centres unmarked)

Out:
< 10 nM
< 10 nM
< 10 nM
> 200 nM
